Data provenance is patent US7528132B2.

# target_under_test: Akt1 (Homo sapiens, UniProt P31749)
# Construct: made in house; host or cells: Sf9 insect cells (baculovirus, pBlueBacHis2B)
# Sequence (P31749 whole entry): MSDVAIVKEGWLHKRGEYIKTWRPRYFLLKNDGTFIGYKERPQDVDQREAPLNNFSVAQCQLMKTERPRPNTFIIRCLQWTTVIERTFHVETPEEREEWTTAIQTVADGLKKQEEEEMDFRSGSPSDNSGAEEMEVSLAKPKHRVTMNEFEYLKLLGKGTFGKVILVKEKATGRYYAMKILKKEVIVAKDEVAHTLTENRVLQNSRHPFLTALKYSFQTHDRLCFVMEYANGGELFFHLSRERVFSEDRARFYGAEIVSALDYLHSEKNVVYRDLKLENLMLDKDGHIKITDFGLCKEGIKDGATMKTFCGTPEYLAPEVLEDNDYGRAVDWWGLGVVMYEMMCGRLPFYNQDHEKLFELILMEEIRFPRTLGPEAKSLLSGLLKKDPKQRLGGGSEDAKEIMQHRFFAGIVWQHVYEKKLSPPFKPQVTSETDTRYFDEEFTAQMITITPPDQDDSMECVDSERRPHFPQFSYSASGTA
# protocol_text: Akt1 kinase assay (33P phosphorylation of biotinylated peptide, Flash plates)
# Format: biochemical
# measurement_setup: read-out: IC50 rating (AKT1 inhibition)
pIC50: −log10 of the molar value.
// pIC50 lookup, one value per entry

// solved cases for pIC50 follow
INSERT INTO measurements (molecule, result) VALUES
  ('Cc1n[nH]c2ccc(-c3nnc(N)c(N4CCNC5(CCCCC5)C4)n3)cc12 [Compound 82]', '6.00 to 7.00'),
  ('Cc1n[nH]c2ccc(-c3nncc(N4CCNC5(CCCCC5)C4)n3)cc12 [Compound 44]', '> 7.00'),
  ('Cc1n[nH]c2ccc(-c3nncc(N4CCCC(N)C4)n3)cc12 (stereo not drawn) [Compound 33]', '6.00 to 7.00');

Entry CC(C)C[C@H]1CN(c2cnnc(-c3ccc4[nH]ncc4c3)n2)CCN1 [Compound 61] , pIC50 reported as > 7.00

Entry Cc1n[nH]c2ccc(-c3nncc(N4CCN[C@@H](CO)C4)n3)cc12 [Compound 27] , pIC50 reported as < 6.00

Entry Cc1n[nH]c2ccc(-c3nnc(Cl)c(N4CCN5CCCCC5C4)n3)cc12 (stereo not drawn) [Compound 32] , pIC50 reported as < 6.00

###

// IC50 lookup, one value per entry
# target_under_test: Akt1 (Homo sapiens)
# Construct: made in house; host or cells: Sf9 insect cells (baculovirus, pBlueBacHis2B)
# protocol_text: Akt1 kinase assay (33P phosphorylation of biotinylated peptide, Flash plates)
# Format: biochemical
# measurement_setup: read-out: IC50 rating (AKT1 inhibition)

INSERT INTO assay_data (compound, quantity_measured, result) VALUES
  ('Cc1n[nH]c2ccc(-c3nnc(N)c(N4CC5CC4CN5)n3)cc12 (stereo not drawn) [Compound 11]', 'IC50', '> 1 µM'),
  ('CCOC(=O)C1(Cc2ccccc2)CCCN(c2cnnc(-c3ccc4[nH]nc(C)c4c3)n2)C1 (stereo not drawn) [Compound 62]', 'IC50', '0.1 to 1 µM'),
  ('Cc1n[nH]c2ccc(-c3nnc(N)c(N4CCC(N)C4)n3)cc12 (stereo not drawn) [Compound 83]', 'IC50', '0.1 to 1 µM');

Pending compound:
Entry Cc1n[nH]c2ccc(-c3nnc(N(Cc4ccccc4)Cc4ccccc4)c(N4CCNCC4)n3)cc12 [Compound 4] , IC50 reported as > 1 µM

###

// IC50 lookup, one value per entry
# target_under_test: Akt1 (Homo sapiens)
# Construct: made in house; host or cells: Sf9 insect cells (baculovirus, pBlueBacHis2B)
# protocol_text: Akt1 kinase assay (33P phosphorylation of biotinylated peptide, Flash plates)
# Type: biochemical
# measurement_setup: read-out: IC50 rating (AKT1 inhibition)

// solved cases for IC50 follow
INSERT INTO results (compound, result) VALUES
  ('CC(C)C[C@H]1CN(c2cnnc(-c3ccc4[nH]nc(-c5ccccc5)c4c3)n2)CCN1 [Compound 72]', '> 1000 nM'),
  ('CCc1n[nH]c2ccc(-c3nncc(N4CCN[C@@H](Cc5ccccc5)C4)n3)cc12 [Compound 80]', '< 100 nM'),
  ('Cc1n[nH]c2ccc(-c3nnc(Cl)c(N4CCC(N)C4)n3)cc12 (stereo not shown) [Compound 38]', '< 100 nM'),
  ('Cc1n[nH]c2ccc(-c3nnc(N)c(N4CCN[C@@H](C)C4)n3)cc12 [Compound 14]', '100 to 1000 nM'),
  ('CC(C)C[C@H]1CN(c2cnnc(-c3ccc4[nH]nc(Cl)c4c3)n2)CCN1 [Compound 64]', '< 100 nM');

Entry c1cc2[nH]nc(C3CC3)c2cc1-c1nncc(N2CCNCC2)n1 [Compound 75] , IC50 reported as > 1000 nM

Entry Cc1n[nH]c2ccc(-c3nnc(N)c(N4CCNCC4)n3)cc12 [Compound 1] , IC50 reported as 100 to 1000 nM

Entry Cc1n[nH]c2ccc(-c3nnc(N)c(N4CCN[C@@H](CC(C)C)C4)n3)cc12 [Compound 8] , IC50 reported as < 100 nM

Entry Cc1n[nH]c2ccc(-c3nnc(N)c(N4CCN[C@@H](C(C)(C)C)C4)n3)cc12 [Compound 81] , IC50 reported as < 100 nM

Entry Cc1n[nH]c2ccc(-c3nncc(N4CCCC(Cc5ccccc5)(C(=O)O)C4)n3)cc12 (stereo not shown) [Compound 65] , IC50 reported as > 1000 nM

###

# target_under_test: Akt1 (Homo sapiens, UniProt P31749)
# Construct: made in house; host or cells: Sf9 insect cells (baculovirus, pBlueBacHis2B)
# protocol_text: Akt1 kinase assay (33P phosphorylation of biotinylated peptide, Flash plates)
# Assay type: biochemical
# measurement_setup: read-out: IC50 (AKT1 inhibition)
# From the text: The assay described below measures the phosphorylation of a biotinylated peptide by active recombinant Akt1 and other kinase isoforms. The biotinylated peptide contains a consensus sequence derived from Akt substrate Gsk3 (Glycogen synthase kinase 3). The ^33P-labeled peptide substrate was captured by streptavidin-coated Flash plates. […] Human Akt1 cDNA was amplified from a marathon-ready human lung cDNA library (Clonetech) using nested oligo primers as described below. […]
// pIC50 lookup, one value per entry
A value of pIC50 is the negative decimal logarithm of a concentration given in moles per litre.

// solved cases for pIC50 follow
INSERT INTO measurements (chem_smiles, numeric_value) VALUES
  ('CC(C)C[C@H]1CN(c2cnnc(-c3ccc4[nH]nc(Cl)c4c3)n2)CCN1', 8.21),
  ('Clc1n[nH]c2ccc(-c3nncc(N4CCN[C@@H](Cc5ccccc5)C4)n3)cc12', 8.24),
  ('Cc1n[nH]c2ccc(-c3nnc(CCc4ccccc4)c(N4CCN[C@@H](C(C)C)C4)n3)cc12', 8.87);

Entry Cc1n[nH]c2ccc(-c3nncc(N4CCN[C@@H](CC(C)C)C4)n3)cc12 , pIC50 reported as 8.27

Entry Cc1n[nH]c2ccc(-c3nncc(N4CCN[C@@H](Cc5ccccc5)C4)n3)cc12 , pIC50 reported as 8.59

###

# target_under_test: Akt1 (Homo sapiens, UniProt P31749)
# Construct: made in house; host or cells: Sf9 insect cells (baculovirus, pBlueBacHis2B)
# protocol_text: Akt1 kinase assay (33P phosphorylation of biotinylated peptide, Flash plates)
# Type: biochemical
# measurement_setup: read-out: IC50 rating (AKT1 inhibition)
pIC50: −log10 of the molar value.
quantity_measured: pIC50

INSERT INTO measurements (compound, quantity_measured, result) VALUES
  ('c1ccc(C[C@H]2CN(c3cnnc(-c4ccc5[nH]nc(C6CC6)c5c4)n3)CCN2)cc1', 'pIC50', '6.00 to 7.00'),
  ('Cc1n[nH]c2ccc(-c3nnc(NCc4ccccc4)c(N4CCN[C@@H](C)C4)n3)cc12', 'pIC50', '6.00 to 7.00'),
  ('COC(=O)C1CN(c2cnnc(-c3ccc4[nH]nc(C)c4c3)n2)CCN1 (centres unmarked)', 'pIC50', '< 6.00'),
  ('CCc1n[nH]c2ccc(-c3nncc(N4CCN[C@@H](CC(C)C)C4)n3)cc12', 'pIC50', '6.00 to 7.00'),
  ('Cc1n[nH]c2ccc(-c3nncc(N4CCC(N)C4)n3)cc12 (centres unmarked)', 'pIC50', '6.00 to 7.00');

Entry c1ccc(C[C@H]2CN(c3cnnc(-c4ccc5[nH]ncc5c4)n3)CCN2)cc1 , pIC50 reported as > 7.00

Entry Cc1n[nH]c2ccc(-c3nnc(N)c(N4CCCNCC4)n3)cc12 , pIC50 reported as 6.00 to 7.00

Entry Cc1n[nH]c2ccc(-c3nncc(N4CCCC(CO)(Cc5ccccc5)C4)n3)cc12 (centres unmarked) , pIC50 reported as 6.00 to 7.00

###

# target_under_test: Akt1 (Homo sapiens, UniProt P31749)
# Construct: made in house; host or cells: Sf9 insect cells (baculovirus, pBlueBacHis2B)
# protocol_text: Akt1 kinase assay (33P phosphorylation of biotinylated peptide, Flash plates)
# Assay type: biochemical
# measurement_setup: read-out: IC50 rating (AKT1 inhibition)
// IC50 lookup, one value per entry

INSERT INTO measurements (molecule, result) VALUES
  ('Cc1n[nH]c2ccc(-c3nncc(N4CCN(C)[C@@H](Cc5ccccc5)C4)n3)cc12 [Compound 28]', '< 100 nM'),
  ('Cc1n[nH]c2ccc(-c3nncc(N4CCNC(Cc5ccccn5)C4)n3)cc12 (stereo not drawn) [Compound 58]', '> 1000 nM'),
  ('c1ccc(CNc2nnc(-c3ccc4[nH]nc(-c5ccccc5)c4c3)nc2N2CCNCC2)cc1 [Compound 53]', '> 1000 nM');

Entry Cc1n[nH]c2ccc(-c3nnc(NCc4ccccc4)c(N4CCN[C@@H](CC(C)C)C4)n3)cc12 [Compound 17] , IC50 reported as > 1000 nM

Entry Cc1n[nH]c2ccc(-c3nnc(Cl)c(N4CCN[C@@H](CC(C)C)C4)n3)cc12 [Compound 24] , IC50 reported as < 100 nM

Entry Cc1n[nH]c2ccc(-c3nncc(N4CCN[C@@H](Cc5c[nH]c6ccccc56)C4)n3)cc12 [Compound 21] , IC50 reported as 100 to 1000 nM

Entry Cc1n[nH]c2ccc(-c3nncc(N4CCNC(Cc5ccncc5)C4)n3)cc12 (stereo not drawn) [Compound 68] , IC50 reported as 100 to 1000 nM

Entry Cc1n[nH]c2ccc(-c3nnc(Cl)c(N4CCN[C@@H](COCc5ccccc5)C4)n3)cc12 [Compound 25] , IC50 reported as > 1000 nM

Entry COC(=O)C1CN(c2nc(-c3ccc4[nH]nc(C)c4c3)nnc2Cl)CCN1 (stereo not drawn) [Compound 40] , IC50 reported as > 1000 nM

Entry Cc1n[nH]c2ccc(-c3nncc(N4CCN[C@@H](C(C)(C)C)C4)n3)cc12 [Compound 73] , IC50 reported as 100 to 1000 nM

Entry Cc1n[nH]c2ccc(-c3nnc(NCc4ccccc4)c(N4CCN[C@@H](Cc5ccccc5)C4)n3)cc12 [Compound 18] , IC50 reported as > 1000 nM

Entry CNC1CCN(c2nc(-c3ccc4[nH]nc(C)c4c3)nnc2N)C1 (stereo not drawn) [Compound 84] , IC50 reported as 100 to 1000 nM

Entry Cc1n[nH]c2ccc(-c3nncc(N4CCNC(Cc5ccccc5F)C4)n3)cc12 (stereo not drawn) [Compound 48] , IC50 reported as < 100 nM

Entry Cc1n[nH]c2ccc(-c3nncc(N4CCN[C@@H](Cc5ccccc5)C4)n3)cc12 [Compound 12] , IC50 reported as < 100 nM

Entry COC(=O)C1(Cc2ccccc2)CCCN(c2cnnc(-c3ccc4[nH]nc(C)c4c3)n2)C1 (stereo not drawn) [Compound 66] , IC50 reported as > 1000 nM

Entry Cc1ccccc1CC1CN(c2cnnc(-c3ccc4[nH]ncc4c3)n2)CCN1 (stereo not drawn) [Compound 74] , IC50 reported as 100 to 1000 nM

Entry Cc1n[nH]c2ccc(-c3nncc(N4CCCC(Cc5ccccc5)C4)n3)cc12 (stereo not drawn) [Compound 59] , IC50 reported as 100 to 1000 nM

Entry Cc1n[nH]c2ccc(-c3nncc(N4CCNC(Cc5cccnc5)C4)n3)cc12 (stereo not drawn) [Compound 57] , IC50 reported as 100 to 1000 nM

Entry Cc1n[nH]c2ccc(-c3nncc(N4CCN5CCCC5C4)n3)cc12 (stereo not drawn) [Compound 29] , IC50 reported as > 1000 nM

Entry Cc1n[nH]c2ccc(-c3nncc(N4CCNC5(CCCC5)C4)n3)cc12 [Compound 41] , IC50 reported as 100 to 1000 nM
